Values compiled from ChEMBL document CHEMBL3045668.

Attribute: zone of inhibition at 1000 µg/mL
Test system: Enterococcus
ASSAY REMARKS: Antibacterial activity against Enterococcus at 1 mg/ml after 24 hr by agar well diffusion assay
Type: functional
RECORDED CONDITIONS: read-out: IZ
QUANTITY NAME: zone of inhibition at 1000 µg/mL (mm)

1. Cc1ccccc1OC(=O)c1cc(-c2cc3ccccc3o2)nc2ccccc12 | 16
2. O=C(Oc1ccccc1Cl)c1cc(-c2cc3ccccc3o2)nc2ccccc12 | 10
3. O=C(Oc1c(Cl)cc(Cl)cc1Cl)c1cc(-c2cc3ccccc3o2)nc2ccccc12 | 10
